Origin of measurements: patent US11834424B2

test: Pharmacokinetics (plasma and brain levels) in ICR (CD-1) mice; assay type: in vivo; settings: male, ICR (CD-1), mouse, plasma, iv, 1 mg/kg, i.v. 1 mg/kg, mouse plasma, 0.50 h; read-out: Conc. in plasma, Mean
reported-metric: concentration at 0.5 h (ng/mL)

1. CC(=O)Nc1ccc(C2=Nc3ccc(Cl)cc3OC2)cc1 [CA77, reference compound] | 17.9
2. CC(=O)Nc1ccc(-c2cnc3cc(Cl)ccc3n2)cc1 | 276

---

test: in vitro; details: human, microsomes, 3 μM
reported-metric: CLint(mic) (µL/min/mg)

1) CC(=O)Nc1ccc(-c2cnc3cc(Cl)ccc3n2)cc1 [CA77.1] | 67.2
2) CC(=O)Nc1ccc(C2=Nc3ccc(Cl)cc3OC2)cc1 [CA77, reference compound] | 40.8
3) Clc1ccc2c(c1)OCC(c1ccc(-c3ccccc3)cc1)=N2 [CA39, reference compound] | 36.6
